Molecular target: Pin1 WW domain (UniProt Q13526 1-41)
Sequence (Q13526 1-41): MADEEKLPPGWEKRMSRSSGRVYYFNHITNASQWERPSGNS
Experiment: ITC
Non-standard residues stand in square brackets, D forms with d. No end group written: not given here. pS = N[C@@H](COP(=O)(O)O)C(=O)O
property label: pKd
Give bare numbers, as −log10 of the molar value.

Which value of pKd has been reported for RI[pS]PPLPF-NH2 [CPEB1 pS210 peptide] in the records?
4.52
